Heads up, these compounds all have IC50 values measured for Bcr/Abl fusion protein (Homo sapiens).
assayReadout: IC50 (µM)

Query: Dear colleague, please send me the reported IC50 for Cc1cn(-c2cc(NC(=O)c3ccc(C)c(C#Cc4cnc(Nc5ccccc5)nc4)c3)cc(C(F)(F)F)c2)cn1 when you can.
Reply: 0.238

1: Cc1cn(-c2cc(NC(=O)c3ccc(C)c(C#Cc4cnc(NC(C)C)nc4)c3)cc(C(F)(F)F)c2)cn1
2: Cc1cn(-c2cc(NC(=O)c3ccc(C)c(C#Cc4cnc(N5CCOCC5)nc4)c3)cc(C(F)(F)F)c2)cn1
Query: Of 1 and 2 , which one carries the higher reported IC50? Give the chosen item's label as your response.
Reply: 2
